- assay-procedure: Chemical stability of the compound assessed as compound remaining measured after 7 days by LC-MS analysis
- Assay type: physicochemical
- conditions-used: time 7 day; read-out: Stability
measurement-kind: remaining at 168 h (%)
Return type: number; implicit unit %.

(Q) Quick one: give measured remaining at 168 h for CC[C@H](C)[C@H](N)C(=O)N1CCn2cc(-c3ccc4c(c3)CCCC4)nc2[C@@H]1CC1CCCCC1.O=C(O)C(F)(F)F
(A) 98.5

----------
- assay-procedure: Antiproliferative activity against human MP41 cells assessed as reduction in cell viability measured after 72 hrs by CCK-8 method
- Type: functional, cell-based
- conditions-used: MP41, 72 h
# pIC50 values compiled below
In simple prose, pIC50 is minus the logarithm base ten of a concentration in moles per litre.

Recorded results for 2 molecules are shown here.
(Q) Quick one: give measured pIC50 for CC[C@H](C)[C@H](N)C(=O)N1CCn2cc(-c3cccc(I)c3)nc2[C@@H]1CC1CCCCC1
(A) 4.74

(Q) Quick one: give measured pIC50 for N[C@@H](CSSC[C@H](N)C(=O)N1CCn2cc(-c3ccccc3)nc2[C@@H]1CC1CCCCC1)C(=O)N1CCn2cc(-c3ccccc3)nc2[C@@H]1CC1CCCCC1
(A) 4.99

Next:
(Q) Quick one: give measured pIC50 for CC[C@H](C)[C@H](N)C(=O)N1CCn2cc(-c3cc(F)cc(Cl)c3)nc2[C@@H]1CC1CCCCC1
(A) 4.96

(Q) Quick one: give measured pIC50 for CC[C@H](C)[C@H](N)C(=O)N1CCn2cc(-c3cccc(Cl)c3OC)nc2[C@@H]1CC1CCCCC1
(A) 5.10

(Q) Quick one: give measured pIC50 for CC[C@H](C)[C@H](N)C(=O)N1CCn2cc(-c3ccc(Cl)c(Cl)c3)nc2[C@@H]1CC1CCCCC1
(A) 5.00

(Q) Quick one: give measured pIC50 for CC[C@H](C)[C@H](N)C(=O)N1CCn2cc(-c3ccc4c(c3)CCCC4)nc2[C@@H]1CC
(A) 4.52

(Q) Quick one: give measured pIC50 for CC[C@H](C)[C@H](N)C(=O)N1CCn2cc(-c3ccccc3C)nc2[C@@H]1CC1CCCCC1
(A) 5.15

(Q) Quick one: give measured pIC50 for c1cc2c(cc1-c1cn3c(n1)[C@H](CC1CCCCC1)N(CCN1CCCCC1)CC3)CCCC2
(A) 4.89

(Q) Quick one: give measured pIC50 for CN1CCN(CCN2CCn3cc(-c4ccc5c(c4)CCCC5)nc3[C@@H]2CC2CCCCC2)CC1
(A) 4.96

(Q) Quick one: give measured pIC50 for CC[C@H](C)[C@H](N)C(=O)N1CCn2cc(-c3ccc4c(c3)OCO4)nc2[C@@H]1CC1CCCCC1
(A) 4.89

(Q) Quick one: give measured pIC50 for c1cc2c(cc1-c1cn3c(n1)[C@H](CC1CCCCC1)N(CCNC1CCCC1)CC3)CCCC2
(A) 5.01
